Value source: patent US8895695B2

# System: human red blood cells (hRBC)
# assayRemarks: Hemolysis
# Format: cell-based
Bridge positions count the residues as written; N and C are the ends. Square brackets hold non-standard residues; d marks the D form. Peptide text beside a SMILES is read from it. 2Nal = N[C@@H](Cc1ccc2ccccc2c1)C(=O)O; Cit = NC(=O)NCCC[C@H](N)C(=O)O
propertyName: Hemolysis at 100 μM (%)

molecule	systemTested	measured
CC(C)[C@@H]1NC(=O)[C@H](Cc2ccc3ccccc3c2)NC(=O)[C@H](CCCNC(=N)N)NC(=O)[C@@H](CCCNC(=N)N)NC(=O)[C@H](CCCNC(=N)N)NC(=O)[C@H](C(C)C)NC(=O)[C@H](CCCNC(N)=O)NC(=O)[C@H](CCCNC(=N)N)NC(=O)[C@H](Cc2ccc(O)cc2)NC(=O)[C@@H]2CCCN2C(=O)[C@H]2CCCN2C(=O)[C@H](CCCCN)NC(=O)[C@H](CCCNC(N)=O)NC(=O)[C@H](Cc2ccc(O)cc2)NC1=O [compound 2] (cyclo(YR[Cit]VR[dR]R[2Nal]VY[Cit]K[dP]P))	human red blood cells (hRBC)	0.9
C[C@@H](O)[C@@H]1NC(=O)[C@H](Cc2c[nH]cn2)NC(=O)[C@H](Cc2ccc(O)cc2)NC(=O)[C@@H]2CCCN2C(=O)[C@H]2CCCN2C(=O)[C@H](CCCCN)NC(=O)[C@H](CCC(N)=O)NC(=O)[C@H](Cc2ccc(O)cc2)NC(=O)[C@@H]2CSSC[C@H](NC1=O)C(=O)N[C@@H](CCCNC(=N)N)C(=O)NCC(=O)N1CCC[C@@H]1C(=O)N[C@@H](CCCNC(=N)N)C(=O)N[C@@H](CCCNC(=N)N)C(=O)N[C@@H](Cc1c[nH]c3ccccc13)C(=O)N2 [Ex. 120] (cyclo(YHTCRG[dP]RRWCYQK[dP]P); disulfide 4-11)	human red blood cells (hRBC)	0
